Source: PubChem BioAssay (NCI)

System: KM12 colon
experiment: NCI tumour cell line growth inhibition, 48 h

molecule	study_system	TGI
O=C1NC2C=CN(Cc3ccccc3)C=C2C(=O)N2CCCC12 (stereo not given)	KM12 colon	> 100 µM
O=c1oc2c(ccc3ccccc32)cc1C1=CSC2=NCCN12	KM12 colon	> 100 µM
C/C(CC1SCCCS1)=C(/C)CC1SCCCS1	KM12 colon	> 100 µM
O=C(CN1CCN(c2ccccc2)CC1)N1CCN(c2nnc(-c3ccc(Cl)cc3)c(-c3ccc(Cl)cc3)n2)CC1	KM12 colon	> 100 µM
Nc1n[nH]c2ccc([C@@H]3Nc4ccc5[nH]ncc5c4[C@H]4C5C=CC(C5)[C@@H]34)cc12 (stereo not given in full)	KM12 colon	11.4 µM
CS/C(C)=N/OC(=O)NCCCCNc1ccc(N=[N+]=[N-])cc1	KM12 colon	> 100 µM
CN(C(=O)c1ccncc1)c1ccccc1	KM12 colon	> 100 µM
CC(C)(CO)NC(=O)Nc1c(C(F)(F)F)cc(-c2ccccc2)[nH]c1=O	KM12 colon	> 100 µM
CC(C)(C)[Si](C)(C)OCCOCn1cc(F)c(=O)[nH]c1=O	KM12 colon	> 100 µM
COC(=O)C1=C(OC(=O)c2ccc(Cl)cc2)C(C(=O)OC)[C@@]2(O)[C@@H](C(=O)OC)C(c3ccccc3Cl)C[C@@H]1[C@@H]2C(=O)OC (stereo not given in full)	KM12 colon	50.8 µM
